Entry source: ChEMBL document CHEMBL5518221

Assay: Protein binding in Sprague-Dawley rat plasma at 5 uM incubated for 6 hrs by equilibrium dialysis based HPLC analysis
READOUT TYPE: fraction unbound at 6 h, 5 µM

input_smiles=CCN1C(=O)N([C@H]2CC[C@H](C(F)(F)F)CC2)C(=O)C12CCN(CC1CCOCC1)CC2 result=0.278

Now for another entry.
Challenge: What value of fraction unbound at 6 h, 5 µM has been recorded for this entry: CCN1C(=O)N(c2ccc(C3CC3)cc2)C(=O)C12CCN(CC1CCOCC1)CC2
Response given: 0.3

====

Experiment: Half-life in female C57BL/6 mouse at 1 mg/kg, iv measured after 0.083 hrs by LC-MS/MS analysis
Conditions: in vivo
Rule: half-life at […] under 2 h gives Not met, otherwise Met.

Would you please look over these solved cases?
input_smiles=CCN1C(=O)N(c2cccc(C3CC3)c2)C(=O)C12CCN(CC1CCOCC1)CC2 category="Not met"
input_smiles=CCN1C(=O)N(c2ccc(C(F)(F)F)cc2)C(=O)C12CCN(CC1CCOCC1)CC2 category=Met
input_smiles=CCN1C(=O)N(c2ccc(C)cc2)C(=O)C12CCN(CC1CCOCC1)CC2 category="Not met"
input_smiles=CCN1C(=O)N([C@H]2CC[C@H](C(F)(F)F)CC2)C(=O)C12CCN(CC1CCOCC1)CC2 category=Met

Challenge: # check: half-life at […] of CCN1C(=O)N(c2ccc(C3CC3)cc2)C(=O)C12CCN(CC1CCOCC1)CC2 is greater than or equal to 2 h
Response given: Met

Challenge: # check: half-life at […] of CCN1C(=O)N(c2ccc(Cl)cc2)C(=O)C12CCN(CC1CCOCC1)CC2 is greater than or equal to 2 h
Response given: Met

Challenge: # check: half-life at […] of CCN1C(=O)N(c2cc(Cl)cc(C#N)c2)C(=O)C12CCN(CC1CCOCC1)CC2 is greater than or equal to 2 h
Response given: Not met

====

Experiment: in vivo
Details: male, Sprague-Dawley, rat, po, 5 mg/kg
What bioavailability at 8 h was measured for each of the following?
Respond with a number, then the unit of measure.

input_smiles=CCN1C(=O)N([C@H]2CC[C@H](C(F)(F)F)CC2)C(=O)C12CCN(CC1CCOCC1)CC2 readout_type="bioavailability at 8 h" result=13%

Challenge: What value of bioavailability at 8 h has been recorded for this entry: CCN1C(=O)N(c2ccc(C3CC3)cc2)C(=O)C12CCN(CC1CCOCC1)CC2
Response given: 42%

====

Experiment: Unbound brain-to-plasma concentration ratio in female C57BL/6 mouse at 0.2 mg/kg administered daily for 7 days and measured 8 hrs post last dose
READOUT TYPE: Kp uu at 176 h
Give bare numbers.

Challenge: What value of Kp uu at 176 h has been recorded for this entry: CCN1C(=O)N(c2ccc(C3CC3)cc2)C(=O)C12CCN(CC1CCOCC1)CC2
Response given: 1.7

====

Assay: Unbound brain-to-plasma concentration ratio in male Sprague-Dawley rat at 1 mg/kg, iv measured after 8 hrs by LC-MS/MS analysis
READOUT TYPE: Kp uu at 8 h
Give bare numbers.

input_smiles=CCN1C(=O)N([C@H]2CC[C@H](C(F)(F)F)CC2)C(=O)C12CCN(CC1CCOCC1)CC2 readout_type="Kp uu at 8 h" numeric_result=0.6
input_smiles=CCN1C(=O)N(c2ccc(C3CC3)cc2)C(=O)C12CCN(CC1CCOCC1)CC2 readout_type="Kp uu at 8 h" numeric_result=0.74

Challenge: What value of Kp uu at 8 h has been recorded for this entry: CCN1C(=O)N(c2ccc(C(F)(F)F)cc2)C(=O)C12CCN(CC1CCOCC1)CC2
Response given: 1.59
